Measured values drawn from patent US10494378B2 for this set.

- System name: JAK2 kinase (Homo sapiens)
- Construct: purchased Carna 08-045
- Sequence (O60674 whole entry): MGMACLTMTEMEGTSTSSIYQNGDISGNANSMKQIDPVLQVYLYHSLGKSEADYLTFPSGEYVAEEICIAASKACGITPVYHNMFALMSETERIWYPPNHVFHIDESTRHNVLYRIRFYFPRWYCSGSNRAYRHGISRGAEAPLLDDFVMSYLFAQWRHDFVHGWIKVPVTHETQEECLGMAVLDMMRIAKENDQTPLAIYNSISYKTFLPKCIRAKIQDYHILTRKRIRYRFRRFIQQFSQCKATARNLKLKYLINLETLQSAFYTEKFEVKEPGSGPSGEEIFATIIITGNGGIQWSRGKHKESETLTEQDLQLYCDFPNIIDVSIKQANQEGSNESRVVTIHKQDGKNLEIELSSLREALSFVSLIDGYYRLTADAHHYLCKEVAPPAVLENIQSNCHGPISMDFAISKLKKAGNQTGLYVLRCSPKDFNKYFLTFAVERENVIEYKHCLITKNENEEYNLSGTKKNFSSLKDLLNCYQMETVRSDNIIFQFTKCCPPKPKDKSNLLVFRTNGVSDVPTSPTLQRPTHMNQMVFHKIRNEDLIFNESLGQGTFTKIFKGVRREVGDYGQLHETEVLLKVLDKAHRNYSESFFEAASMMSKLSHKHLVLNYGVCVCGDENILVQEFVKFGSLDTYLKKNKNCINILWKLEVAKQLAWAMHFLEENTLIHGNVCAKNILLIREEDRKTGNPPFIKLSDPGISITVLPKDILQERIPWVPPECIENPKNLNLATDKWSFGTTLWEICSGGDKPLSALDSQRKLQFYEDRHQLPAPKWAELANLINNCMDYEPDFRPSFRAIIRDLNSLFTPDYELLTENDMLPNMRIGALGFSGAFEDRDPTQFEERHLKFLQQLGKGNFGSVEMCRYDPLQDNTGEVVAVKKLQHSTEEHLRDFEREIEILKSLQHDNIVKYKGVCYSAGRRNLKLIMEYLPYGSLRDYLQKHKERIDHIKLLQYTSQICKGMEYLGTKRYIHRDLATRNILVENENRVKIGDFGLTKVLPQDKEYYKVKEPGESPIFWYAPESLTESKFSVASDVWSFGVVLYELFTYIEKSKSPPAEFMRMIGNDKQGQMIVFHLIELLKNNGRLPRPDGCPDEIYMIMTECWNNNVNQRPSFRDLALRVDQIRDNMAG
- Protocol summary: IC50 evaluation assay on JAK2 kinase inhibition (Caliper)
- Format: biochemical
- Condition label: adenosine triphosphate at Km; 1 hour at 28° C.; average of two tests; read-out: IC50 (nM) inhibiting JAK 2 kinase
Record form. Attribute: IC50. Fill in for each entry.
Give bare numbers, in nM.

Below are worked cases with known answers.
Smiles string: Cc1sc2cnc(Nc3cnn(C)c3)nc2c1-c1cccc2c1OCC2
Metric: IC50
Measured value: 1.8

Smiles string: COc1ccccc1-c1c(C)sc2cnc(Nc3cnn(C4CCNCC4)c3)nc12
Metric: IC50
Measured value: 0.7

Smiles string: Cc1sc2cnc(Nc3cnn(C4CCN(C(=O)CO)CC4)c3)nc2c1-c1cccc2c1OCC2
Metric: IC50
Measured value: 0.82

Smiles string: COc1ccccc1-c1c(C)sc2cnc(Nc3cnn(CCO)c3)nc12
Metric: IC50
Measured value: 0.31

Smiles string: COc1cc(F)ccc1-c1c(C)sc2cnc(Nc3cnn(C4CCN(CCO)CC4)c3)nc12
Metric: IC50
Measured value: 0.71

# map each compound to its IC50
1. COc1ccccc1-c1cccc2cnc(Nc3cnn(C4CCNCC4)c3)nc12
2. COc1ccccc1-c1c(C)sc2cnc(Nc3cnn(C)c3)nc12
3. COc1ccccc1-c1c(C)sc2cnc(Nc3cnn(CCCN4CCCC4)c3)nc12
4. COc1cc(Cl)ccc1-c1c(C)sc2cnc(Nc3cnn(C)c3)nc12

# output
[5.8, 1.7, 1.6, 1.4]

====

Hi there, I'd appreciate the recorded IC50 for every entry that follows.
- System name: FLT3-D835Y kinase (Homo sapiens, UniProt P36888, D835Y)
- Construct: purchased Invitrogen PR7450A
- Protocol summary: IC50 evaluation assay of FLT3-D835Y kinase inhibition (Caliper)
- Assay type: biochemical
- Condition label: 28° C.; average of two tests; read-out: IC50 (nM) inhibiting FLT3-D835Y kinase
Numbers only, in nM.

Could I get IC50 for every one of these entries?
1. COc1cc(F)ccc1-c1c(C)sc2cnc(Nc3cnn(C4CCN(CCO)CC4)c3)nc12
2. COc1cc(F)ccc1-c1c(C)sc2cnc(Nc3cnn(C4CCNCC4)c3)nc12

# output
0.23
0.2

====

- System name: JAK3 kinase (Homo sapiens)
- Construct: purchased Carna 08-046
- Sequence (P52333 whole entry): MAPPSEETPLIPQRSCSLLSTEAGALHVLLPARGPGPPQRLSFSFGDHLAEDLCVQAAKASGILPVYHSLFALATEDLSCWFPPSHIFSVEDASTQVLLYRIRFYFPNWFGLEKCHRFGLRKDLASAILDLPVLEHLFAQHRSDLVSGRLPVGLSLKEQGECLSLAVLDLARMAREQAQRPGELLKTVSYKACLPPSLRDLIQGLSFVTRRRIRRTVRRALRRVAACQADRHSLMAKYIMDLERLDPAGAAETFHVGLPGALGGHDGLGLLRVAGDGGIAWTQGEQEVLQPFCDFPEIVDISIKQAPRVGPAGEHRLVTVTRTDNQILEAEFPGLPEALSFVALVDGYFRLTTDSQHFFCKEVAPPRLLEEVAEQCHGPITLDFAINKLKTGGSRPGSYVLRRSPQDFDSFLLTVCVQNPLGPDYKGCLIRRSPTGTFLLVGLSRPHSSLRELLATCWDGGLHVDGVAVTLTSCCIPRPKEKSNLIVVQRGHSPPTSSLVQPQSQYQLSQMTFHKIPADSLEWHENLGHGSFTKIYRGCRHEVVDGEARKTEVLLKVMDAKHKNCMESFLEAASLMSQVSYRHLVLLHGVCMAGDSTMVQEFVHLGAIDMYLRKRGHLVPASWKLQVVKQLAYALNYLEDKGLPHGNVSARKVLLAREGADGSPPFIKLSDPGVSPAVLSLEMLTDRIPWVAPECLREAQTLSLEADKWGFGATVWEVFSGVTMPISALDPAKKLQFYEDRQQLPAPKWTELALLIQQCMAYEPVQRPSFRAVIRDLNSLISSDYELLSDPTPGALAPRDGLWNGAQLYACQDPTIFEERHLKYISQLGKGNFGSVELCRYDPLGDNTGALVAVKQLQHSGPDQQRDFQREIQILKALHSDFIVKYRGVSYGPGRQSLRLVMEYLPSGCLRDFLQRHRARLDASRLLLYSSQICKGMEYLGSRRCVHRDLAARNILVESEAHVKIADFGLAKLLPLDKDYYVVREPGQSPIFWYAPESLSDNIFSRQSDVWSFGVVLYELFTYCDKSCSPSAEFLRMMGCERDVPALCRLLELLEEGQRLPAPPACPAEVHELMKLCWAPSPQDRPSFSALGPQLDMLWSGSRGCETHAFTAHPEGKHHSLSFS
- Protocol summary: IC50 evaluation assay on JAK3 kinase inhibition (Caliper)
- Assay type: biochemical
- Condition label: adenosine triphosphate at Km; 1 hour at 28° C.; average of two tests; read-out: IC50 (nM) inhibiting JAK 3 kinase
Param label: returns MET when IC50 < 2 nM, returns NOT MET otherwise, including exact equality.

These solved cases illustrate the format of a correct answer.
Smiles string: COc1cc(OCCCN2CCC2)ccc1-c1c(C)sc2cnc(Nc3cnn(C)c3)nc12
Qualitative label: NOT MET
//
Smiles string: COc1ccccc1-c1c(C)sc2cnc(Nc3cnn(C)c3)nc12
Qualitative label: MET

# input Threshold test, IC50 < 2 nM: COc1ccccc1-c1c(C)sc2cnc(Nc3cnn(CCO)c3)nc12
# output MET

# input Also need COc1ncccc1-c1c(C)sc2cnc(Nc3cnn(C)c3)nc12 , thanks.
# output MET

# input Likewise for COc1ccc(-c2c(C)sc3cnc(Nc4cnn(C)c4)nc23)c(OC)c1 ?
# output MET

# input Then what about the compound COc1cc(F)ccc1-c1c(C)sc2cnc(Nc3cnn(C4CCN(CCO)CC4)c3)nc12 ?
# output MET

# input Now the same for COc1cc(S(C)(=O)=O)ccc1-c1c(C)sc2cnc(Nc3cnn(C4CCNCC4)c3)nc12
# output MET

# input Proceed to COc1ccncc1-c1c(C)sc2cnc(Nc3cnn(C)c3)nc12
# output NOT MET

# input Now this one: COc1cc(OCCCS(C)(=O)=O)ccc1-c1c(C)sc2cnc(Nc3cnn(C)c3)nc12
# output MET

====

- System name: JAK3 kinase (Homo sapiens)
- Construct: purchased Carna 08-046
- Protocol summary: IC50 evaluation assay on JAK3 kinase inhibition (Caliper)
- Format: biochemical
- Condition label: adenosine triphosphate at Km; 1 hour at 28° C.; average of two tests; read-out: IC50 (nM) inhibiting JAK 3 kinase
Metric: IC50 (nM)
One number for each entry, in nM.

Compound: Cc1sc2cnc(Nc3cnn(C)c3)nc2c1-c1ccccc1Cl [Compound 33]
System name: JAK3 kinase (Homo sapiens)
Measured value: 12.9
--
Compound: COc1cc(OCC(=O)N2CCC2)ccc1-c1c(C)sc2cnc(Nc3cnn(C)c3)nc12 [Compound 23]
System name: JAK3 kinase (Homo sapiens)
Measured value: 0.64
--
Compound: Cc1sc2cnc(Nc3cnn(C4CCN(C(=O)CO)CC4)c3)nc2c1-c1cccc2c1OCC2 [Compound 36]
System name: JAK3 kinase (Homo sapiens)
Measured value: 0.41
--
Compound: COc1ccccc1-c1cccc2cnc(Nc3cnn(C4CCNCC4)c3)nc12 [Compound 45]
System name: JAK3 kinase (Homo sapiens)
Measured value: 1
--
Compound: COc1ccccc1-c1c(C)sc2cnc(Nc3cnn(CCCN4CCCC4)c3)nc12 [Compound 26]
System name: JAK3 kinase (Homo sapiens)
Measured value: 1.6

Value sought for every listed compound: IC50.
1. COc1cc(S(C)(=O)=O)ccc1-c1cccc2cnc(Nc3cnn(C4CCNCC4)c3)nc12 [Compound 49]
2. Cc1sc2cnc(Nc3cnn(C)c3)nc2c1-c1ccccc1OC(C)C [Compound 29]
3. Cc1sc2cnc(Nc3cnn(C4CCOCC4)c3)nc2c1-c1cccc2c1OCC2 [Compound 39]
4. COc1ccccc1-c1cncc2cnc(Nc3cnn(C4CCNCC4)c3)nc12 [Compound 47]

# output
9.8
15.9
0.71
3

Give IC50 for each listed item.
1. COc1cc(S(C)(=O)=O)ccc1-c1c(C)sc2cnc(Nc3cnn(C)c3)nc12 [Compound 4]
2. COc1cc(OCCCS(C)(=O)=O)ccc1-c1c(C)sc2cnc(Nc3cnn(CCO)c3)nc12 [Compound 24]
3. COc1cc(OCCCN2CCOCC2)ccc1-c1c(C)sc2cnc(Nc3cnn(C)c3)nc12 [Compound 17]
4. COc1cc(O[C@@H]2CCOC2)ccc1-c1c(C)sc2cnc(Nc3cnn(C)c3)nc12 [Compound 12]
5. COc1ccccc1-c1c(C)sc2cnc(Nc3cnn(C4CCNCC4)c3)nc12 [Compound 35]
6. Cc1sc2cnc(Nc3cnn(C)c3)nc2c1-c1ccccc1N(C)C [Compound 41]

# output
3.1
1.3
1.3
1.4
0.84
33.7

Batch lookup, IC50 per entry.
1. COc1ccccc1-c1c(C)sc2cnc(Nc3cnn(C4CCN(C)CC4)c3)nc12 [Compound 25]
2. c1cc2c(c(-c3cccc4cnc(Nc5cnn(C6CCNCC6)c5)nc34)c1)OCC2 [Compound 44]

# output
1.3
16

====

Assign IC50 to each entry below.
- System name: FLT3-ITD kinase (Homo sapiens)
- Protocol summary: IC50 evaluation assay of FLT3-ITD kinase inhibition (Caliper)
- Assay type: biochemical
- Condition label: 28° C.; average of two tests; read-out: IC50 (nM) inhibiting FLT3-ITD kinase
- Method: 1. The compound was dissolved in 100% DMSO, diluted into solutions with appropriate concentration gradients with water according to experimental requirement, and added to a 96-well plate. 2. […] 4. The conversion rate was read with Caliper Reader. The inhibition rate was calculated as the average of two tests.
Numbers only, in nM.

Molecule: COc1cc(F)ccc1-c1c(C)sc2cnc(Nc3cnn(C4CCN(CCO)CC4)c3)nc12 [Compound 34]
Metric: IC50
Readout unit: nM
Measured value: 0.33

Please turn your attention to the following entry.
# input # query: IC50 | item COc1cc(F)ccc1-c1c(C)sc2cnc(Nc3cnn(C4CCNCC4)c3)nc12 [Compound 31] | system: FLT3-ITD kinase (Homo sapiens)
# output 0.34

====

Give measured IC50 for each item. Keep answers brief.
- System name: JAK1 kinase (Homo sapiens)
- Construct: purchased Carna 08-144
- Sequence (P23458 whole entry): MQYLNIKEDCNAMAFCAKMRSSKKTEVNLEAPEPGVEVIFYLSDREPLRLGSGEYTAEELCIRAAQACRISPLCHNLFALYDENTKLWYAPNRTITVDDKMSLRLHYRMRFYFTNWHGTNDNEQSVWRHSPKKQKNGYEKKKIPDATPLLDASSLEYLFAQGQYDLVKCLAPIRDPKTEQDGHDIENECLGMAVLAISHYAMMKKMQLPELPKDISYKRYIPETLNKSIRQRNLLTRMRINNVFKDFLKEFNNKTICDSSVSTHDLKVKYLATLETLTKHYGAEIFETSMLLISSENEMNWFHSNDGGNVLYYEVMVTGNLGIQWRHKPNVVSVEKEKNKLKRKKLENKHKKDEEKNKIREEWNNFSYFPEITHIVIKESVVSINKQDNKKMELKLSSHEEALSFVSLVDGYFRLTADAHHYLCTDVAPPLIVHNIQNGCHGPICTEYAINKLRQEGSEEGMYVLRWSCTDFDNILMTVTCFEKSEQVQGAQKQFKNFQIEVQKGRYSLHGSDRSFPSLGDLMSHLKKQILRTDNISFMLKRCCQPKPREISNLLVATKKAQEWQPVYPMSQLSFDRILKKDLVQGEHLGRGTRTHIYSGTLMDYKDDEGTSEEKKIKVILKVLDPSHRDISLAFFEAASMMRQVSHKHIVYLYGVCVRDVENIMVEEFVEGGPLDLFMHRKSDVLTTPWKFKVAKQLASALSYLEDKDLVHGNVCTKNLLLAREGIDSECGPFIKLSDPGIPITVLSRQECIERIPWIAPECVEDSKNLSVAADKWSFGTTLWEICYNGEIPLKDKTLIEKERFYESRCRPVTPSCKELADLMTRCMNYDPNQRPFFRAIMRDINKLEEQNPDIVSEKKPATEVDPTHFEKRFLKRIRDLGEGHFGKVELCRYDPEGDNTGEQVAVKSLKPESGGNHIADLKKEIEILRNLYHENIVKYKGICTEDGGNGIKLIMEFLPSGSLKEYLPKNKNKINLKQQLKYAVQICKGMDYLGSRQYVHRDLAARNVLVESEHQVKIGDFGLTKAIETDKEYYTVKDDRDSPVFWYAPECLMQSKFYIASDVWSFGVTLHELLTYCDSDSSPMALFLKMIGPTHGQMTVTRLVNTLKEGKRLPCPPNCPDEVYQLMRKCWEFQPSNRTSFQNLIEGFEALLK
- Protocol summary: IC50 evaluation assay on JAK1 kinase inhibition (Caliper)
- Assay type: biochemical
- Condition label: adenosine triphosphate at Km; 1 hour at 28° C.; average of two tests; read-out: IC50 (nM) inhibiting JAK 1 kinase
Numbers only, in nM.

Smiles string: COc1cc(Cl)ccc1-c1c(C)sc2cnc(Nc3cnn(C)c3)nc12
Metric: IC50
Readout unit: nM
Measured value: 12
//
Smiles string: COc1ccccc1-c1c(C)sc2cnc(Nc3cnn(C4CCN(C)CC4)c3)nc12
Metric: IC50
Readout unit: nM
Measured value: 3.6
//
Smiles string: COc1cc(OCCCN2CCC2)ccc1-c1c(C)sc2cnc(Nc3cnn(C)c3)nc12
Metric: IC50
Readout unit: nM
Measured value: 34
//
Smiles string: COc1cc(F)ccc1-c1c(C)sc2cnc(Nc3cnn(CCCN4CCCC4)c3)nc12
Metric: IC50
Readout unit: nM
Measured value: 10
//
Smiles string: COc1cc(OCCCS(C)(=O)=O)ccc1-c1c(C)sc2cnc(Nc3cnn(C)c3)nc12
Metric: IC50
Readout unit: nM
Measured value: 5.1

Could I get IC50 for every one of these entries?
1. COc1ccccc1-c1cncc2cnc(Nc3cnn(C4CCNCC4)c3)nc12
2. COc1cc(OCCCS(C)(=O)=O)ccc1-c1c(C)sc2cnc(Nc3cnn(CCO)c3)nc12
3. COc1cc(O[C@@H]2CCOC2)ccc1-c1c(C)sc2cnc(Nc3cnn(C)c3)nc12
4. COc1cc(F)ccc1-c1c(C)sc2cnc(Nc3cnn(C4CCN(CCO)CC4)c3)nc12
5. CN(c1ccccc1-c1csc2cnc(Nc3cnn(C)c3)nc12)S(C)(=O)=O
6. COc1ccccc1-c1c(C)sc2cnc(Nc3cnn(CCO)c3)nc12
7. Cc1sc2cnc(Nc3cnn(C)c3)nc2c1-c1cccc2c1OCO2

# output
1. 58
2. 9
3. 12
4. 5.6
5. 75.8
6. 1.3
7. 8.5

Give IC50 for each of the items listed below.
1. COc1cc(O[C@H]2CCOC2)ccc1-c1c(C)sc2cnc(Nc3cnn(C)c3)nc12
2. Cc1sc2cnc(Nc3cnn(C)c3)nc2c1-c1ccccc1Cl
3. Cc1sc2cnc(Nc3cnn(C)c3)nc2c1-c1cccc2c1OCC2
4. Cc1sc2cnc(Nc3cnn(C4CCOCC4)c3)nc2c1-c1cccc2c1OCC2

# output
[13, 18.5, 14, 18]
